# protocol: in vitro
# conditionSet: human, hela cells, % viability
outcomeMeasure: viability at 28.5 h, 10 µM (%)
Numbers only, in %.

Would you mind giving viability at 28.5 h, 10 µM for every molecule in the list below?
1. CC(C)(C)c1ccc(-n2cc(-c3ccc(Cl)cc3)nn2)cc1 [CBK113031]
2. Cn1c(-c2ccc(C(=O)O)cc2)cc2oc(-c3ccccc3)nc2c1=O [CBK074957]
3. Nc1nonc1C(=O)NCCNC(=O)c1ccco1 [CBK058480]

A:
102
98
99.1

Would you mind giving viability at 28.5 h, 10 µM for every molecule in the list below?
1. C=CCn1c(COc2ccc(Cl)cc2)nnc1SCC(=O)O [CBK263171]
2. O=C(NCCOc1ccccc1)N1CCN(c2ccc(F)cc2)CC1 [CBK156416]
3. CN(C(=O)C1CCN(C(=S)NCc2ccccc2)CC1)C(c1ccccc1)c1ccccn1 (stereo not shown) [CBK060476]
4. CSCCN1CCN(c2nccnc2Oc2ccc(F)cc2)CC1 [CBK083028T]
5. O=S(=O)(NCCSCc1ccco1)c1ccc(Cl)cc1 [CBK232206]
6. CC(C)(C)c1cc(CCC(=O)N/N=C/c2ccco2)cc(C(C)(C)C)c1O [CBK261960]

A:
105
92.7
91.7
93.2
85.6
110

Would you mind giving viability at 28.5 h, 10 µM for every molecule in the list below?
1. C#CCNS(=O)(=O)c1cccc(C(=O)NC2CCOc3ccccc32)c1 (stereo not shown) [CBK305430]
2. Cc1cc(C)n(CC(=O)N2CCNC(=O)C2c2ccccc2Cl)n1 (stereo not shown) [CBK306421]
3. c1cncc(COc2nccnc2N2CCCC2)c1 [CBK115890]
4. Cc1nn(C)c(C)c1-c1ccnc(NCCC2(O)CCN(C)CC2)n1 [CBK307659]
5. CCn1cc(C2CN(S(=O)(=O)c3cc(C)c(OC)c(C)c3)CCO2)cn1 (stereo not shown) [CBK304224]
6. COc1ccc(N2CCN(c3cncc(-c4cc(OC)c(OC)c(OC)c4)n3)CC2)cc1OC [CBK037988]
7. CC(Oc1ccc2c(c1)OCO2)C(=O)N1CCc2sccc2C1c1ccccc1 (stereo not shown) [CBK285549]

A:
[111, 92.6, 101, 86.1, 85.8, 99.9, 91.9]

Would you mind giving viability at 28.5 h, 10 µM for every molecule in the list below?
1. Cc1ccc(C(NC(=O)CC(C)C)c2ccc3cccnc3c2O)cc1 (stereo not shown) [CBK293943]
2. Cc1ccc(C2(CN3CCC(NC(=O)C4CC4)CC3)CC2)cc1 [CBK285359]
3. COc1ccc(CN2CCN(C(=O)c3ccccc3F)CC2)c(OC)c1 [CBK033601]

A:
1. 89.3
2. 83.9
3. 125
